What follows is literature data on IC50 for Squalene synthase (Rattus norvegicus, UniProt Q02769).
Numeric answer plus unit only.

Answered examples (3):
CC[C@H](C)C[C@H](C)CCC(=O)O[C@@H]1[C@@H](O)[C@@]2(C/C=C(\C)[C@H](OC(C)=O)[C@@H](C)Cc3ccccc3)O[C@H](C(=O)O)[C@@](O)(C(=O)O)[C@]1(C(=O)O)O2	22 nM
CC(C)=CCC/C(C)=C/CC/C(C)=C/C(O)P(=O)(O)O (configuration not stated)	2300 nM
C=C(CC[C@]12O[C@H](C(=O)O)[C@@](O)(C(=O)O)[C@](C(=O)O)(O1)[C@H](OC(=O)OCCCCCCCCC)[C@H]2O)[C@@H](OC(C)=O)[C@H](C)Cc1ccccc1	7 nM

Could you share what IC50 was measured for C=C(CC[C@]12O[C@H](C(=O)O)[C@@](O)(C(=O)OC)[C@](C(=O)O)(O1)[C@H](O)[C@H]2O)[C@@H](OC(C)=O)[C@H](C)Cc1ccccc1 , tested on Squalene synthase (Rattus norvegicus, UniProt Q02769)?
355 nM

Could you share what IC50 was measured for CC(C)=CCC/C(C)=C/CC/C(C)=C/CC(C(=O)N[C@@H](Cc1ccccc1)C(=O)O)P(=O)(O)O (some centres not stated) , tested on Squalene synthase (Rattus norvegicus, UniProt Q02769)?
1300 nM

Could you share what IC50 was measured for CC(C)=CCC/C(C)=C/CCCCCCCC(P(=O)(O)O)P(=O)(O)O , tested on Squalene synthase (Rattus norvegicus, UniProt Q02769)?
4.2 nM

Could you share what IC50 was measured for C=C(CC[C@]12O[C@H](CO)[C@@](O)(C(=O)O)[C@](C(=O)O)(O1)[C@H](OC(=O)CC[C@@H](C)C[C@@H](C)CC)[C@H]2O)[C@@H](O)[C@H](C)Cc1ccccc1 , tested on Squalene synthase (Rattus norvegicus, UniProt Q02769)?
22 nM
